biological target: PKMYT1 (Homo sapiens)
readout-label: pIC50
# reply with the number alone; pIC50 is -log10 of concentration in mol/L

### Prompt Look up pIC50 for this molecule: CCN(CC)CCOc1ccc(Nc2ncc3cc(-c4c(Cl)cccc4Cl)c(=O)n(C)c3n2)cc1
### Response 7.78

====

Molecular target: PKMYT1 (protein kinase, membrane-associated tyrosine/threonine 1) (Homo sapiens, UniProt Q99640)
Construct: residues 75-362, N-terminal 6xHis, E. coli
Sequence (Q99640 75-362): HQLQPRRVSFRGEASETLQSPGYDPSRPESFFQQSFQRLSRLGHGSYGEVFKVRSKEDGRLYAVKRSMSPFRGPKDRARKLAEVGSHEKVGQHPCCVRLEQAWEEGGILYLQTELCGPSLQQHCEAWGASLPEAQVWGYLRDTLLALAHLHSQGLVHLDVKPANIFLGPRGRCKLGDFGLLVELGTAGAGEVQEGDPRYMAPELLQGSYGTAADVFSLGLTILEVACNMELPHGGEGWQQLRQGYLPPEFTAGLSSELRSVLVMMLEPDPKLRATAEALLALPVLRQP
Test: MST; LC-MS/MS adduct mapping; CETSA; C301A mutant abolishes binding
readout-label: Kd (nM)
Output spec: scalar in nM, unitless text.

### Prompt Look up Kd for this compound: CN1C(=O)/C(=C2/C(=O)Nc3ccccc32)c2ccccc21
### Response 2180
